The measurements presented in this section are drawn from paper PMC10303271.

- ASSAY TARGET: Beta1 (Homo sapiens)
- Construct: purchased NIMH Psychoactive Drug Screening Program (PDSP)
- Sequence (P08588 whole entry): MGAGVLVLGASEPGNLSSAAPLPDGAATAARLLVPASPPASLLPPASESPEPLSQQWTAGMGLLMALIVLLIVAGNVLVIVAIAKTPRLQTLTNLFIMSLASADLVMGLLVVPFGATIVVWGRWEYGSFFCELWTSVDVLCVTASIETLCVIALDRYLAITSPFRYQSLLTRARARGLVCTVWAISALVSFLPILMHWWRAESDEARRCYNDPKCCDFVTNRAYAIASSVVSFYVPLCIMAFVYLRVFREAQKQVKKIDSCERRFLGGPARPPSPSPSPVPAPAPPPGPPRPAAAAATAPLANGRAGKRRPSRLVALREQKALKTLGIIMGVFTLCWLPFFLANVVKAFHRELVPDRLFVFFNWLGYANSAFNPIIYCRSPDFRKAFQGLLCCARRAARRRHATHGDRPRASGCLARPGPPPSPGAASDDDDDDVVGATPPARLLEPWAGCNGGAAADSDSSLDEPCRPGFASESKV
- ASSAY SUMMARY: PDSP primary binding Beta1
- CONDITION DESCRIPTION: 1.5 h; primary binding, 10,000 nM; last figure of the line = mean of the 4 before it; read-out: Beta1, PDSP raw data, mean
inhibition at 10 µM: recorded values
Entry format: amount then unit.

{"columns": ["COMPOUND", "ASSAY TARGET", "inhibition at 10 µM"],
 "data": [
  ["CCc1noc(-c2ncn3c2CN=C(c2ccccc2F)c2cc(C4CC4)ccc2-3)n1", "Beta1 (Homo sapiens)", "-5.19%"],
  ["CCc1noc(-c2ncn3c2[C@@H](C)N=C(c2ccccc2F)c2cc(Cl)ccc2-3)n1", "Beta1 (Homo sapiens)", "-14.7%"],
  ["C[C@H]1N=C(c2ccccc2F)c2cc(Cl)ccc2-n2cnc(-c3nc(C4CC4)no3)c21", "Beta1 (Homo sapiens)", "9.95%"]
]}

Turning now to a further compound:
Entry C#Cc1ccc2c(c1)C(c1ccccn1)=N[C@@H](C)c1c(C(=O)N(C)C)ncn1-2 — recorded inhibition at 10 µM = -16.2%
